- assay notes: NCI Yeast Anticancer Drug Screen. Data for the rad50 strain (AID 155);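 also: 0% = growth of vehicle-only cultures of the same strain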
- measurement parameters: S. cerevisiae rad50 strain growth inhibition; at 50.0 µM (retest, dose inferred, filed as 5.0); hits give high values
About 79,000 compounds went through this panel and 15% of them were active in at least one assay; those are over-represented in the sample as a whole.
readout: growth inhibition (%)

• CC(C)=CC(=O)OC(CCCc1ccccc1)c1ccc2c(c1)OCO2 (centres undefined) = -5
• C=C(CSCCCCCCCCCCCC)C(=O)O = 97
• O=[N+]([O-])c1ccc2c(c1)/C(=N\O)c1cc(Br)ccc1-2 = 39
• CC(O)c1cc(-c2ccc(Cl)cc2)nc2ccccc12 (centres undefined) = 97
• CCC12C=CCN3CCC4(c5cc(C(c6ccccn6)c6cc7ccccc7n6C)c(OC)cc5N(C)C4C(O)(C(=O)OC)C1OC(C)=O)C32 (centres undefined) = 0
• CNc1ccc(F)cc1SSc1cc(F)ccc1NC = 98
• O=C(Nc1ccccc1)ON=C1CCCCC1 = 75
• O=C(NCCCNCCCCNCCCNC(=O)c1cc(-c2ccccc2)nc2ccccc12)c1cc(-c2ccccc2)nc2ccccc12 = 98
• O=C(OC1C2CCC2C2CC21)c1cc([N+](=O)[O-])cc([N+](=O)[O-])c1 (centres undefined) = 97
• CC(=O)[O-].[Mn+3].[O-]c1ccc(Cl)cc1C=NCCN=Cc1cc(Cl)ccc1[O-] = 92
• OC(c1ccccc1)(c1ccccc1)C1CCCCC1 = 97
• CC1C(c2ccc(Cl)cc2)c2cc3c(cc2OC1N1CCOCC1)OCO3 (centres undefined) = 6
• COc1ccccc1NC(=O)Oc1ccc(C(C)(CCC(=O)O)c2ccc(OC(=O)Nc3ccccc3OC)cc2)cc1 = 13
• O=c1onc(-c2ccc(Cl)cc2)c2ccccc12 = 3
• CN(C)c1ccc(C2CC(C)(N3CCCC3)Oc3cc4c(cc32)OCO4)cc1 (centres undefined) = 42
• CCCCCCCCCCCC(N)c1ccccc1 (centres undefined) = 99
• COc1cc(C(c2cc3c(cc2O)OCO3)N2CCN(C(c3cc(OC)c(O)c(OC)c3)c3cc4c(cc3O)OCO4)CC2)cc(OC)c1O (centres undefined) = 7
• COC(O)C(=O)c1ccc2c(c1)CC1(C2)Cc2cc3c(cc2C1=O)CCC3 (centres undefined) = 99
• N/C(=N\OC1(c2ccccc2)OC(=O)C(=O)/C1=C(/O)c1ccccc1)c1ccccc1 (centres undefined) = 97

----------
- assay notes: NCI Yeast Anticancer Drug Screen. Data for the cln2 rad14 strain (AID 165);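 also: 0% = growth equal to vehicle treated cultures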
- measurement parameters: S. cerevisiae cln2 rad14 strain, at 50.0 µM
About 79,000 compounds went through this panel and 15% of them were active in at least one assay; those are over-represented in the sample as a whole. The source made the active and inactive calls. Cut-off read from the data, not from the text of the source: active = growth inhibition above about 70%; inactive = the rest.
Possible outcomes: active, inactive

• OCC1(O)OCC(O)C(O)C1O (centres undefined) = inactive
• O=C(NC(Cc1ccc(I)cc1)C(=O)O)c1cccc(Br)c1 (centres undefined) = inactive
• CCCCCCN(CCCCCC)CCCCCC = inactive
• Cc1cc(C[P+](c2ccccc2)(c2ccccc2)c2ccccc2)c(C)cc1C[P+](c1ccccc1)(c1ccccc1)c1ccccc1 = active
• Cn1c(=S)c2[nH]c(SCCN3CCCCC3)nc2n(C)c1=O = inactive
• CC(=O)Nc1ccc2c(c1)C(=Nc1ccc(F)cc1)c1ccccc1-2 = inactive
• COc1ccc(-c2nc(C)[nH]c(=O)c2Cc2c(O)ccc3ccccc23)cc1 = inactive
• CCOc1ccc2c(c1)n([O-])c1cc(Br)ccc1[n+]2=O = inactive
• COC1/C=C\OC2(C)Oc3c(C)c(O)c4c(c3C2=O)C(=O)C=C(NC(=O)C(C)=C/C=C\C(C)C(O)C(C)C2OC(C)(C)OC(C1C)C2C)C4=O (centres undefined) = inactive
• CC(C)(Cl)C(Cl)CC/C(CBr)=C(\Cl)CBr (centres undefined) = active
• CS/C(=N\C(=S)Nc1ccccc1)Nc1ccccc1 = active
• Cc1ccccc1NC(=O)CSC(N)=O = inactive
• CCCCCCCCCCCOc1cccc(N2C(N)=NC(N)=NC2(C)C)c1 = inactive
• c1ccc2c(c1)CCCc1cc3ccccc3nc1-2 = active
• Nc1ccc2c(S(=O)(=O)O)cc(S(=O)(=O)O)cc2c1 = inactive
• OCC(O)Cc1c(Cl)c(Cl)c(Oc2c(Cl)c(Cl)c(CC(O)CO)c(Cl)c2Cl)c(Cl)c1Cl (centres undefined) = inactive
• Cc1ccc(C(=O)OCC(C)C)cc1N=NN(C)C = inactive
• O=C1OC(=O)c2ccc([N+](=O)[O-])c3cccc1c23 = inactive
• COc1ccc2c(c1)C(O)=C(CC=C(C)C)C(=O)C2=O = inactive
• CSC1=Nc2ccccc2SC(c2ccccc2)C1c1ccccc1 (centres undefined) = active
• CN1C(/C=C/c2ccc(O)c3ncccc23)CCC2CCCC(O)C21 (centres undefined) = active
• C=C1CCCCC1C(C(=O)O)(c1ccccc1)c1ccccc1 (centres undefined) = active
• CCc1ccc(/C=C/C(=O)C2CN(CC)CCC2(O)/C=C/c2ccc(CC)cc2)cc1 (centres undefined) = active
• CN1C(=O)OC(C)(c2ccccc2)C1=O (centres undefined) = active
• Nc1nc(-c2ccc3c(c2)Sc2ccccc2O3)cs1 = active
• N#CCN1CCCCCc2ccccc21 = inactive
• CCCCCOC(=S)SSSC(=S)OCCCCC = inactive
• Nc1ccc(C(=O)Oc2cccccc2=O)cc1 = inactive
• Cc1cc2c(cc1S(=O)(=O)O)C1C(C3C2C2(Cl)C(Cl)=C(Cl)C3(Cl)C2(Cl)Cl)C2(Cl)C(Cl)=C(Cl)C1(Cl)C2(Cl)Cl (centres undefined) = inactive
• COC(=O)c1c(C)cccc1C(=O)c1c(C)cc(C)cc1C = inactive
• CC(C)C(=O)/C=C/c1c(Cl)cccc1Cl = inactive
• O=C(CCCl)Nc1ccc(CCC(=O)c2ccccc2NC(=O)CCCl)cc1 = inactive
• CC(=O)NNc1ccc(Cl)cc1[N+](=O)[O-] = inactive
• Brc1ccc(C2c3ccccc3-c3ccccc32)cc1 = active
• O=S(=O)(Nc1ccccc1-c1ccc(Cl)cc1)c1ccccc1 = active
• O=Cc1ccc(O)cc1O = inactive
• NC(=O)c1oc([N+](=O)[O-])c(-c2ccccc2)c1-c1ccccc1 = inactive
• CCCCCCCCCC[N+](C)(C)CCC[N+](C)(C)CCCCCCCCCC = active
• O=c1oc(-c2ccccc2)nc2ccccc12 = inactive

----------
- assay notes: NCI Yeast Anticancer Drug Screen. Data for the mlh1 rad18 strain (AID 175)
- measurement parameters: S. cerevisiae mlh1 rad18 strain growth inhibition; at 50.0 µM; hits give high values
The panel holds about 79,000 compounds, 15% with a hit somewhere; the sample as a whole holds those more often. Where a SMILES comes first, the peptide text is derived from it. [ ]: non-standard residue; d: D form. The star is where a group is joined. mTyr = N[CH](Cc1cccc(O)c1)C(=O)O; Cbz = O=C(OCc1ccccc1)*; OBn = c1ccc(CO*)cc1
Below, each of the molecules is paired with its reported growth inhibition value.
readout: growth inhibition (%)

- c1ccc2c(c1)CCCc1cc3ccccc3nc1-2: 89.7
- COc1ccc(C(=O)C(Br)CS(=O)(=O)c2ccc(C)cc2)cc1 (stereo not drawn): 99
- NC(=O)CC1CCC(c2ccccc2)CC1 (stereo not drawn): 41.8
- COC(=O)C(Cc1cccc(O)c1)NC(=O)C(CC(=O)OCc1ccccc1)NC(=O)OCc1ccccc1 (stereo not drawn) (Cbz-Asp(OBn)-[mTyr]-OMe; configuration not given here): 80.9
- O=C1C(c2ccccc2)=[N+]([O-])c2cc([N+](=O)[O-])c(/C(Cl)=C/c3ccccc3)cc21: 96.2
- O=S(=O)(CCCCl)SCCCCl: 99.5
- Cc1cc(Cc2ccccc2Cl)ccc1O: 95.5
- COC(=O)C1(C)CCc2c(ccc3cccc(OC)c23)C1=O (stereo not drawn): 44.5

----------
- assay notes: NCI Yeast Anticancer Drug Screen. Data for the cln2 rad14 strain (AID 165);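 also: 0% = growth equal to vehicle treated cultures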
- measurement parameters: S. cerevisiae cln2 rad14 strain, at 50.0 µM (retest, dose inferred, filed as 5.0), hits give high values
Compounds without any hit were thinned out: in the full panel of roughly 79,000, 15% have a hit.
Below, each of the compounds is paired with its reported growth inhibition value.
readout: growth inhibition (%)

- Nc1ccc(S(=O)(=O)N2CCCc3ccccc32)cc1: 23
- CC1(C)[C@H]2CC[C@]1(C)[C@H](OC(=O)NNC(=O)O[C@@H]1C[C@@H]3CC[C@@]1(C)C3(C)C)C2: 38
- CC(C)=CCc1ccc(O)cc1: 96
- Cc1ccccc1NCc1ccccc1Cl: 99
- CC1=C/C(=C(/c2ccc(O)c(C)c2)c2ccccc2C(=O)O)C=CC1=O: 98
- CN(C)CCN(C)CCC(=O)/C=C/c1ccccc1: 99
- O=c1c2[nH]c3cccc(Cl)c3c2cnn1-c1ccc(F)cc1: 85
- CC#CC#C/C=C1/C=CC(=O)O1: 26
- C[n+]1c(-c2ccc(/C=N/Nc3ccnc(N/N=C/c4ccc(-c5cn6ccccc6[n+]5C)cc4)n3)cc2)cn2ccccc21: 99
- C[C@H]1CC[C@@H]2[C@@H](C)[C@H]3[C@H](C[C@H]4[C@@H]5CC=C6C[C@@H](O)CC[C@]6(C)[C@H]5C[C@H](O)[C@]34C)N2C1: -2
- COc1ccc(C(CN2CCOCC2)C(C)=O)cc1OC (stereo not drawn): 40
- CCCCc1ccc2nc(C)cc(N=[N+]=[N-])c2c1: 48
- COc1ccc2c(c1)C1(C)CCCC(C)(C(=O)O)C1CC2 (stereo not drawn): 99
- O=C1/C(=C/c2ccccc2)CNC/C1=C\c1ccccc1: 98
- CC(C)OC1=C(Cl)C(=O)c2c(cccc2[N+](=O)[O-])C1=O: 100
- CC(NNC(=S)N1CCCC1)c1cccnn1 (stereo not drawn): 99
- CCOC(=O)C(NS(=O)(=O)c1ccccc1)(C(F)(F)F)P(=O)(OCC(C)C)OCC(C)C (stereo not drawn): 13
- CN(C)c1ccc(C2(c3ccc(N(C)C)cc3)OC(=O)c3ccccc32)cc1: -26
